Data provenance is patent US4463004A.

Measured LD50, listed per entry.
assay: Acute toxicity, intraperitoneal (Miller and Tainter); conditions: mouse, in vivo, ip; mice, i.p.; read-out: Acute toxicity LD 50

c1cncc(C23CNCC(CO2)O3)c1 (centres unmarked) = > 400 mg/kg
c1csc(C23CNCC(CO2)O3)c1 (centres unmarked) = > 400 mg/kg

Which value of LD50 has been reported for O=C(O)c1ccc(C23CNCC(CO2)O3)cc1 (centres unmarked) in the records?
> 400 mg/kg

Query (compound): c1cc(C23CNCC(CO2)O3)ccc1C1CCCCC1 (centres unmarked) ; field requested: LD50
> 400 mg/kg

Form field: reported LD50 of c1ccc(CN2CC3COC(C4CCCCC4)(C2)O3)cc1 (centres unmarked)
> 400 mg/kg
